- System: Mus musculus
- assay procedure: Antiinflammatory activity against dextrane disodium sulfate-induced ulcerative colitis in BALB/c mouse assessed as length of colon at 250 mg/kg administered 1 hr before dextrane disodium sulfate challenge
- Type: functional
measure name: Activity (cm)
Numbers only, in cm.

Worked cases, Activity given:
compound | measure name | recorded measurement
CC(CCc1ccc(OCCCOc2ccc(CC(=O)N(C)CCc3ccccc3)cc2)cc1)C(=O)O (stereo not drawn) | Activity | 7.2
CC(CCc1ccc(OCCCCOc2ccc(CC(=O)N(C)CCc3ccccc3)cc2)cc1)C(=O)O (stereo not drawn) | Activity | 9.3
COc1cc(CCC(=O)O)ccc1OCCCCOc1ccc(CC(=O)N(C)CCc2ccccc2)cc1 | Activity | 7
O=C(O)c1cc(/N=N/c2ccc(S(=O)(=O)Nc3ccccn3)cc2)ccc1O [SULFASALAZINE] | Activity | 9.1
CC(C(=O)O)c1ccc(OCCCCOc2ccc(CC(=O)N(C)CCc3ccccc3)cc2)cc1 (stereo not drawn) | Activity | 7.2
CN(CCc1ccccc1)C(=O)Cc1ccc(OCCCOc2ccc(CCC(=O)O)cc2)cc1 | Activity | 6.8
COc1cc(/C=C/C(=O)O)ccc1OCCCCOc1ccc(CC(=O)N(C)CCc2ccccc2)cc1 | Activity | 6.8
CC(C(=O)O)c1ccc(OCCCCOc2ccc(CC(=O)N(C)CCc3ccccc3)cc2)c(Cl)c1 (stereo not drawn) | Activity | 7.9

// for each compound below, give its Activity
1. CN(CCc1ccccc1)C(=O)Cc1ccc(OCCOc2ccc(CCCC(=O)O)cc2)cc1
2. CC(C(=O)O)c1cccc2ccc(OCCCCOc3ccc(CC(=O)NCCc4ccccc4)cc3)cc12 (stereo not drawn)

[7.1, 7.5]

* * *

- System: Rattus norvegicus
- assay procedure: Antiinflammatory activity in rat assessed as inhibition of carrageenan-induced edema at 100 mg/kg relative to untreated control
- Type: functional
Assign True to entries whose inhibition in vivo at 100 mg/kg meets or exceeds 40%; assign False to the rest.

// inclusive: inhibition in vivo at 100 mg/kg at least 40%? input: `COc1cc(/C=C/C(=O)O)ccc1OCCCCOc1ccc(CC(=O)N(C)CCc2ccccc2)cc1` False

Quick check: does `CN(CCc1ccccc1)C(=O)Cc1ccc(OCCOc2ccc(CCCC(=O)O)cc2)cc1` have inhibition in vivo at 100 mg/kg greater than or equal to 40%? False

Decide: inhibition in vivo at 100 mg/kg of CC(CCc1ccc(OCCOc2ccc(CC(=O)N(C)CCc3ccccc3)cc2)cc1)C(=O)O (centres undefined) >= 40%? False

Check the entry CC(C(=O)O)c1cccc2ccc(OCCCCOc3ccc(CC(=O)NCCc4ccccc4)cc3)cc12 (centres undefined) : does inhibition in vivo at 100 mg/kg equal or exceed 40%? False

Does the reported inhibition in vivo at 100 mg/kg for `CN(CCc1ccccc1)C(=O)Cc1ccc(OCCCCOc2ccc(CCCC(=O)O)cc2)cc1` fall at or above the 40% mark? False

Quick check: does `COc1cc(/C=C/C(=O)O)ccc1OCCOc1ccc(CC(=O)N(C)CCc2ccccc2)cc1` have inhibition in vivo at 100 mg/kg greater than or equal to 40%? False

State whether the measured inhibition in vivo at 100 mg/kg reaches 40%, counting equality as reaching it, for CC(Cc1ccc(OCCCCOc2ccc(CC(=O)N(C)CCc3ccccc3)cc2)cc1)C(=O)O (centres undefined) False

Assess whether reported inhibition in vivo at 100 mg/kg for `CN(CCc1ccccc1)C(=O)Cc1ccc(OCCOc2ccc(C(=O)CCC(=O)O)cc2)cc1` sits at 40% or higher. False
